biological target: GS-7340 ester hydrolase (Homo sapiens, UniProt P10619); construct: Fresh human PBMCs are obtained from patients undergoing leukophoresis; test: biochemical
Sequence (P10619 29-326 limits assumed): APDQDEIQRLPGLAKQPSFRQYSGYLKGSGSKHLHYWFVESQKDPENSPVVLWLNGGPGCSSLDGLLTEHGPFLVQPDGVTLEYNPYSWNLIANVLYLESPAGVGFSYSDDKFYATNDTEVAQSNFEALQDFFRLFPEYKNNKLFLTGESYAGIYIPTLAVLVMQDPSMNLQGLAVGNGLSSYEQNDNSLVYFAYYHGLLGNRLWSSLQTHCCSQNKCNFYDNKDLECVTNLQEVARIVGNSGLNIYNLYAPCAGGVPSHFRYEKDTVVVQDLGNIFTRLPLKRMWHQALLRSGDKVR
Sequence (P10619 327-480 limits assumed): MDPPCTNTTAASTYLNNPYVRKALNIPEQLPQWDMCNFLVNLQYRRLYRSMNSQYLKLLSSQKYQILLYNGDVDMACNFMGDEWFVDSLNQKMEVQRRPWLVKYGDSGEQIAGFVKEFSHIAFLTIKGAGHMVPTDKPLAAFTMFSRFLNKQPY
measured metric: pIC50
As a rule, pIC50 stands for the negative log10 of the concentration, concentration in M.

What value of measured pIC50 is listed for O=c1oc(Cl)c(Cl)c2ccccc12 ?
6.30
